Give melting point for every item shown.

Record Cc1nc(-c2ccc(-c3cc(C(F)(F)F)nn3-c3ccc(S(C)(=O)=O)c(F)c3)cc2)cs1 , field melting point: 139 to 141 °C

Record O=C1c2ccccc2-n2cnc(CO)c2[C@@H]2CCCN12 , field melting point: 212 to 214 °C

Record COc1ccc([C@]2(C)C=Cc3cc(OC)ccc3[C@H]2C=O)cc1 (relative stereo) , field melting point: 127 °C

Record COc1cc(Cc2cnc(N)nc2N)cc(OC)c1C(C)(C)O , field melting point: 183 to 185 °C

Record O=C(O)CCCCC(=O)c1ccc2cc(O)ccc2c1 , field melting point: 191 to 193 °C

---

Give melting point for every item shown.

Record Cc1ccc(C2=NCCN2C(=O)Nc2ccccc2)cc1C , field melting point: 139 to 142 °C

Record CN(C)c1ccc(-c2[nH]nc3c2C(=O)c2c(NC(=O)CN4CCC(O)CC4)cccc2-3)cc1 , field melting point: 267 °C

Record COC(=O)NC1CC(=O)N(c2cc(Cl)cc(Cl)c2)C1=O (stereo not given) , field melting point: 136 to 138 °C

Record Cn1nc(C(F)(F)F)c(C(=O)O)c1Sc1ccc(F)cc1 , field melting point: 190 to 194 °C

Record O=C(Nc1csc(-c2cccnc2)n1)c1nnn[nH]1 , field melting point: 263 to 265 °C

---

Give melting point for every item shown.
Give the number; °C is assumed, so skip it.

Record CCCCCCCCCCCCc1ccc(NC)c([N+](=O)[O-])c1 , field melting point: 54

Record COc1ccc(OCc2ccc(=O)n(Cc3ccc(Cl)cc3)c2)cc1 , field melting point: 114

Record O=C1N(c2ccc(Cl)cc2Cl)Cc2cnc(Nc3ccccc3)nc2N1c1cccc(CCN2CCOCC2)c1 , field melting point: 118

Record COc1ccc(C2CC(c3cccc(OC)c3)=NN2c2ccc(C(=O)O)cc2)cc1 (centres undefined) , field melting point: 142

Record CCCC(CCNC(=O)C(C#N)=Cc1ccc(O)c(O)c1)NC(=O)C(C#N)=Cc1ccc(O)c(O)c1 (centres undefined) , field melting point: 263

Record CC1(C)CC(OC(=O)CCC(=O)OC2CC(C)(C)NC(C)(C)C2)CC(C)(C)N1 , field melting point: 118

Record COc1cc(C(=O)N2CCCCc3cc(Cl)ccc32)ccc1OCc1ccccc1Cl , field melting point: 135

Record COC(=O)c1ccc(OCCNC(=O)C2Cc3ccccc3N2S(=O)(=O)c2ccc(-c3cc(C(F)(F)F)ccc3Cl)cc2)cc1C(F)(F)F (centres undefined) , field melting point: 79

---

READOUT_LABEL: melting point

Record CC(=O)NCC1CC(c2ccc(N3CCOCC3)c(F)c2)=NO1 (single isomer, unassigned; (-)) , field melting point: 179 to 180 °C

Record O=C1NC(=O)c2c1cc1ccc3c(c1c2-c1cccnc1)OCO3 , field melting point: 323 to 325 °C

Record CCCC/C=C\c1c([C@H](O)[C@H](CCCC)NC(=O)[C@H](CC(C)C)NC(=O)OCC2CCCCC2)c1=O , field melting point: 138 to 140 °C

Record O=C(O)[C@@H]1C[C@H](C2CCCCC2)CN1C(=O)CP(=O)(O)CCCCc1ccccc1 , field melting point: 175 to 176 °C

Record COC(=O)[C@@H]1[C@H](c2ccccc2)N1S(=O)(=O)c1ccc(C)cc1 (stereo partly specified) , field melting point: 85 to 87 °C

Record C=C1CC(C)(c2ccc(Nc3c4ccccc4nc4occc34)cc2)OC1=O (stereo unspecified) , field melting point: 85 to 87 °C

Record CCN1CC=CC2=C1N1CN(OC)C=C1N=N2 , field melting point: 167 to 168 °C

Record c1ccc2c(c1)Cc1sccc1CN2 , field melting point: 86 °C

Record CCCCCOC(=O)Cc1nc(-c2ccccc2)oc1-c1ccsc1 , field melting point: 61 to 62 °C

Record COCC(=O)Nc1ccc2ncnc(Nc3cccc(Cl)c3)c2c1 , field melting point: 177 to 180 °C

Record CC1(C)CCSc2cc(C(=O)Nc3ccc(C(=O)O)cc3)ccc21 , field melting point: 274 to 276 °C

Record CC1(C)CC(=S)Nc2ccc(-c3cccc(Cl)c3)cc21 , field melting point: 197 to 198 °C

Record CN1Cc2c(-c3nc(CNCc4ccccc4)no3)ncn2-c2ccccc2C1=O , field melting point: 195 to 198 °C

Record O=C(CSc1cccc(Br)c1)c1ccc2[nH]c3ncc(Cl)cc3c2c1 , field melting point: 229 to 230 °C

Record Cc1nc2c(O)c(CCC(=O)c3cccs3)c(C(=O)N(C)C)cn2c1C , field melting point: 234 °C

Record COc1cc2c(cc1OCc1ccccc1)CCN(C(=O)c1ccccc1OC)C2=O , field melting point: 163 to 164 °C

Record Cc1ccc(CN2CCOCC2)cn1 , field melting point: 51 to 52 °C

Record CCCc1ccc(S(=O)(=O)Nc2ccc(OC)nc2)cc1 , field melting point: 93 to 94 °C

Record COc1cc(C2CCN(CC(O)CF)CC2)ccc1Nc1ncc2ccc(-c3ccccc3N(C)S(C)(=O)=O)n2n1 (stereo unspecified) , field melting point: 82 to 95 °C

Record Fc1ccc(Br)nc1Br , field melting point: 47 to 48 °C

Record COc1cc([N+](=O)[O-])c2ncc(C)cc2c1 , field melting point: 173 to 175 °C

---

READOUT_LABEL: melting point

Record Cc1cc(=O)[nH]c(=S)n1C1CCCCC1 , field melting point: 240 to 243 °C

Record Oc1ccc(Nc2ccn(-c3ccccc3)n2)cc1 , field melting point: 147 to 148 °C

Record COc1ccc(C2CC[N+]([O-])(CCC3CCOc4ccccc43)CC2)cc1OC (stereo not given) , field melting point: 97 °C

Record COC(=O)C1=C(C)NC(C(C)O)=C(C(=O)OC)C1c1ccccc1Cl (stereo not given) , field melting point: 145 to 147 °C

Record CCOC(=O)c1cccc(-c2nc(-c3cc(Cl)sc3Cl)cs2)c1 , field melting point: 125 to 126 °C

Record Clc1ccc(-c2cc3ccccc3nc2Cl)c(Cl)c1 , field melting point: 120 to 122 °C

Record COc1cc2c(cc1Nc1ncc(Cl)c(Nc3ccc(N4CCOCC4)cc3OC)n1)CCOC(=O)N2C , field melting point: 242 to 245 °C

Record Cc1cccc(NC(=O)NC2N=C(C(C)C)c3cccc(C)c3N(CC(=O)C3CCCCC3)C2=O)c1 (stereo not given) , field melting point: 142 to 146 °C

Record CC[C@H](CC(=O)NC(=O)OCc1ccccc1)Nc1ccc(C(F)(F)F)cc1 , field melting point: 101 °C

Record O=C(OCc1cc2c3ccccc3[nH]c(=O)n2n1)c1ccccc1 , field melting point: 262 to 265 °C

Record N#Cc1nn(-c2c(Cl)cc(SC(F)(F)F)cc2Cl)c(N)c1I , field melting point: 172 to 174 °C

Record CCCCCCC#CC(O)C1=Nc2ccc(F)cc2C(=O)C1C (stereo not given) , field melting point: 153 to 154 °C

Record Cc1ccc2oc(C(=O)N[C@H]3CCN(C(=O)c4cc(C(F)(F)F)cc(C(F)(F)F)c4)[C@H](Cc4ccc(Cl)cc4)C3)cc(=O)c2c1 , field melting point: 240 to 241 °C

Record Cc1cc(CNC(=O)c2cc(N3CCN(Cc4ccc(F)cc4)C3=O)n[nH]2)n[nH]1 , field melting point: 254 to 255 °C

Record COC(=O)COc1ccc(N=C=O)cc1 , field melting point: 50 to 53 °C

Record O=S(c1ccccc1)C1O[C@H](COCc2ccccc2)[C@@H](OCc2ccccc2)[C@H](OCc2ccccc2)[C@H]1OCc1ccccc1 (stereo not given in full) , field melting point: 120 to 122 °C

Record C=Cc1c(N)cc(-c2ccc(Cl)c(OC)c2F)nc1C(=O)O , field melting point: 209 to 211 °C

Record CCSc1nccn1-c1ccc(O)cc1 , field melting point: 165 °C

Record Cc1cc2c(c(OCC(=O)c3ccc(C(C)C)cc3)c1)CCC2 , field melting point: 68 to 69 °C

Record Cc1nc2c(N)nc3ccccc3c2n1CCOC/C=C/c1ccccc1 , field melting point: 112 °C

---

Give melting point for every item shown.
Give the number; °C is assumed, so skip it.

Record CCC1=C(C)CN(C(=O)NCC2CCOc3cc(OC)c(S(=O)(=O)NC(=S)NC(C)C)cc32)C1=O (stereo not given) , field melting point: 153

Record Brc1cn2ccnc2c(N2CCOCC2)n1 , field melting point: 191

Record NC(=O)c1nc(-c2ccc3nc[nH]c3c2)nc2c1[nH]c(=O)n2-c1ccccc1F , field melting point: 278

Record CCOc1ccc(C(=O)Nc2ccc3ccc(OC)nc3n2)cc1 , field melting point: 145

---

READOUT_LABEL: melting point

Record CCCc1c(OCCCCCc2ccc(O)c(O)c2)ccc(C(C)=O)c1O , field melting point: 126 to 127 °C

Record COc1ccccc1N1CCN(Cc2ccc(CC(=O)O)cc2)CC1 , field melting point: 87 to 90 °C

Record CNC(=O)Oc1ccc(NC(=O)C(F)(F)Cl)c(C)c1 , field melting point: 156 to 158 °C

Record CCOc1nn(CCOc2nn(CC)cc2CC(=O)O)cc1C(=O)NCc1ccc(Cl)cc1Cl , field melting point: 157 to 158 °C

Record CC(C)(C)OC(=O)N[C@@H](Cc1c[nH]c2ccccc12)c1nc2c(C(F)(F)F)cccc2c(O)c1C(=O)Nc1nccs1 , field melting point: 270 °C

Record CCCCCCOC1CC(C)(C)N(c2nc(N(CCCC)C3CC(C)(C)NC(C)(C)C3)nc(N(CCCC)C3CC(C)(C)NC(C)(C)C3)n2)C(C)(C)C1 , field melting point: 135 to 137 °C

Record C[C@@H]1S[C@@H](C(=O)Nc2ccc(Cn3oc(=O)[nH]c3=O)cc2)Cc2cc3c(cc2C1=O)OCO3 , field melting point: 237 to 239 °C

Record CCOC(=O)C=Cc1ccc(Oc2ccc([N+](=O)[O-])cc2)c(Cl)c1Cl , field melting point: 145 to 146 °C
